- Assay system: T1, Human Serum Albumin (human, UniProt P02768 25-609)
- T1 construct: ELISA: albumin coated on plates; pull-down: endogenous albumin in normal human serum; also called HSA; Human SA
- T1 sequence (P02768 25-609 limits assumed): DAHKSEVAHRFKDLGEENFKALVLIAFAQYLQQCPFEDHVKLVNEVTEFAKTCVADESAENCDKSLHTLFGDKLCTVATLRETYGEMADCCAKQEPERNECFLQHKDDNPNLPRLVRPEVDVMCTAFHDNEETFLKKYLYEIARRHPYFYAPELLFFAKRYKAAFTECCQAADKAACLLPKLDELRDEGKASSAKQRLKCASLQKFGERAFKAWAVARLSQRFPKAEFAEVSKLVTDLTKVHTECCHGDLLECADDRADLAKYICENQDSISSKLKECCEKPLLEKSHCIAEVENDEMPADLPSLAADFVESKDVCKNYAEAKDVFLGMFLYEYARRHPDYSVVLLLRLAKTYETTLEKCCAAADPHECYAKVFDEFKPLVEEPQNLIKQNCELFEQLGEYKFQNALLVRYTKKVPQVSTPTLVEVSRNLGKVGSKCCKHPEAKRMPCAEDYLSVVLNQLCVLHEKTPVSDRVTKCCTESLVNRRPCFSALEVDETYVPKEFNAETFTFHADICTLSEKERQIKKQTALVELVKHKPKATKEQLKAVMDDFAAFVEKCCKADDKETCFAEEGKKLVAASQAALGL
- Test: ELISA, 667 nM FN3 protein on immobilized human albumin
Listed here: items and their measured Human Albumin (RLU).
Give the value, in units of RLU, as a plain number.

These recorded examples may help you get a feel for the data.
INSERT INTO assay_data (binder, result_unit, recorded_value) VALUES
  ('A10V, I41A (designed binder, Variant of B7; not shown: His tag: FN3 domains were purified as His-tagged proteins) MLPAPKNLVVSRVTEDSARLSWTAPDAAFDSFNIAYWEPGAGGEAIWLRVPGSERSYDLTGLKPGTEYKVWIHGVKGGASSPPLIARFTT', 'RLU', 50600),
  ('A10V, A79S (designed binder, Variant of B7; not shown: His tag: FN3 domains were purified as His-tagged proteins) MLPAPKNLVVSRVTEDSARLSWTAPDAAFDSFNIAYWEPGIGGEAIWLRVPGSERSYDLTGLKPGTEYKVWIHGVKGGSSSPPLIARFTT', 'RLU', 250),
  ('A10V, P82A (designed binder, Variant of B7; not shown: His tag: FN3 domains were purified as His-tagged proteins) MLPAPKNLVVSRVTEDSARLSWTAPDAAFDSFNIAYWEPGIGGEAIWLRVPGSERSYDLTGLKPGTEYKVWIHGVKGGASSAPLIARFTT', 'RLU', 21700),
  ('A10V, R87A (designed binder, Variant of B7; not shown: His tag: FN3 domains were purified as His-tagged proteins) MLPAPKNLVVSRVTEDSARLSWTAPDAAFDSFNIAYWEPGIGGEAIWLRVPGSERSYDLTGLKPGTEYKVWIHGVKGGASSPPLIAAFTT', 'RLU', 47400),
  ('A10V, S80A (designed binder, Variant of B7; not shown: His tag: FN3 domains were purified as His-tagged proteins) MLPAPKNLVVSRVTEDSARLSWTAPDAAFDSFNIAYWEPGIGGEAIWLRVPGSERSYDLTGLKPGTEYKVWIHGVKGGAASPPLIARFTT', 'RLU', 2950);

Form: binder = wt Tencon (designed binder, also called wild type tencon) LPAPKNLVVSEVTEDSLRLSWTAPDAAFDSFLIQYQESEKVGEAINLTVPGSERSYDLTGLKPGTEYTVSIYGVKGGHRSNPLSAEFTT ; Human Albumin (RLU) = 8350
